Below, each entry is listed with its recorded TGI.
# Tested on: SN12C renal
# assay-comment: NCI tumour cell line growth inhibition, 48 h
readout: TGI

compound | result
O=C1OC(C2Cc3ccccc3C2=O)c2ccccc21 (stereo unspecified) | > 100 µM
CC(=O)Nc1nc(SCc2ccccc2)c2ncn(C(C)=O)c2n1 | > 100 µM
COc1ccc(C[C@H]2NC(=O)/C=C/C[C@@H]([C@H](C)[C@H]3O[C@@H]3c3ccccc3)OC(=O)[C@H](CC(C)C)OC(=O)[C@H](C)CNC2=O)cc1 | > 0.0001 µM
CN(C)Cc1cc(C(C)(C)C)cc(CNC2CCCCC2)c1O | > 100 µM
NNC(=O)Cc1cccnc1 | > 100 µM
Nc1ccc(C(=O)c2ccc(N)c(Br)c2)cc1Br | > 100 µM
COc1cc(NC(=O)c2cc(OC)c3ccn(C)c3c2)cc2c1C[C@]1(C)CC[C@@H](O)C(C)(C)[C@H]1O2 | > 100 µM
CC(C)=CC(=O)Oc1ccc([N+](=O)[O-])cc1 | > 100 µM
COC(=O)COc1ccc(/C=C2\N=C(c3ccccc3)N(c3cc(C(F)(F)F)ccc3Cl)C2=O)cc1 | > 100 µM
CCOC(=O)/C(=C\c1ccc(OCc2ccccc2)c(OC)c1)C(=O)c1ccccc1 | 45.6 µM
COc1cc2c(c(OC)c1OC)-c1ccc(SC)c(=O)cc1[C@@H](NC(=O)c1ccc(OC(C)=O)cc1)CC2 | 18.8 µM
CN(C)c1ccc(/C=N/n2c(-c3ccccc3)nc3ccccc3c2=O)cc1 | > 100 µM
CCOC(=O)c1[nH]cnc1/N=N/N(C)N | > 100 µM
CCN(CC)CCOc1ccc(Nc2ncc3cc(-c4ccc(O)cc4)c(=O)n(C)c3n2)cc1 | 21.2 µM
OCC(O)C(O)C(O)C1SC(c2ccccc2)=NN1c1ccccc1 (stereo unspecified) | > 100 µM
COc1ccc2c(c1)C1Oc3ccccc3CC1(O)CO2 (stereo unspecified) | > 100 µM
O=C(/C=C/C=C/c1ccccc1)CCc1ccccc1 | > 100 µM
Cc1ccc(S(=O)(=O)N(CC(O)c2ccccc2)c2ccccc2F)cc1 (stereo unspecified) | 34.3 µM
N#CC1=C(N)NC(=S)NC12Nc1ccccc1O2 (stereo unspecified) | 90 µM
CC1(CO)OC1COCc1ccccc1 (stereo unspecified) | > 100 µM
CN(C)NC1=NS(=O)(=O)c2cc3c(cc2S1)N(N(C)C)C(=O)c1cc2c(cc1N(N(C)C)C3=O)SC(NN(C)C)=NS2(=O)=O | > 10 µM

----------
# Test system: HOP-18 NSCLC
# assay-comment: NCI tumour cell line growth inhibition, 48 h
Below, each entry is listed with its recorded TGI.

compound | TGI
O=C(CNC(=O)OCc1ccccc1)Oc1ccccc1 | > 100 µM
CC(=O)NC1=C(Nc2ccc(C)cc2)C(=O)c2ccccc2C1=O | 28.5 µM
NCCCN(CCCN)CCCNCc1c2ccccc2c(CNCCCN(CCCN)CCCN)c2ccccc12 | 20.7 µM
O=[N+]([O-])c1ccc(Sc2c3ccccc3nc3ccccc23)cc1 | > 100 µM
C=CC[C@H]1C[C@@]2(C)OC[C@H](C(C)C)N2C1=O | > 100 µM
O=C(Nc1ccc(Cl)cc1)c1cccc([N+](=O)[O-])c1O | > 100 µM
S=c1nc(Oc2ccc(Cl)c(Cl)c2)[nH]c(=S)[nH]1 | > 100 µM
CC(=O)OCSc1ncnc2c1ncn2CN1CCOCC1 | > 100 µM
Cc1cccc(C)c1NC(=O)CCCC(=O)CC(=O)/C=C/c1ccccc1 | > 100 µM
Cc1cc(O)c(C(=O)CC2(O)C(=O)Nc3c(Cl)cc(Cl)cc32)c(=O)o1 (configuration not stated) | > 100 µM
Clc1ccc(-n2nnc(C3=NCCCN3)c2-c2ccccc2)cc1 | > 100 µM
C1CNCCNCCNCCN1 | > 100 µM

Data origin, for the record: PubChem BioAssay (NCI)
